From: ChEMBL document CHEMBL4311972

Catalogue of Activity readings, one per entry.
Test system: 786-0
Assay: Mitochondrial toxicity in human 786-0 cells at 10 uM incubated with compound for 6 hrs followed by incubation with MitoTracker Red chloromethyl-X-rosamine dye for 45 mins by imaging analysis
Format: cell-based
Details: 786-0, 6 h

>  <Molecule Smiles>
COc1ccc2oc(-c3cccc(-c4ccc5c(c4)OCO5)c3)c(O)c(=O)c2c1

>  <Activity [%]>
-1.63

$$$$
>  <Molecule Smiles>
COc1ccc2oc(-c3csc4ccccc34)c(OC(=O)N(C)C)c(=O)c2c1

>  <Activity [%]>
-42.09

$$$$
>  <Molecule Smiles>
Cc1ccc2c(=O)c(O)c(-c3csc4ccccc34)oc2c1

>  <Activity [%]>
-19.4

$$$$
>  <Molecule Smiles>
COc1ccc2c(=O)c(O)c(-c3csc4ccccc34)oc2c1

>  <Activity [%]>
-22.67

$$$$
>  <Molecule Smiles>
Cc1csc(-c2oc3cccc(O)c3c(=O)c2O)c1

>  <Activity [%]>
5.8

$$$$
>  <Molecule Smiles>
CCOc1c(-c2csc3ccccc23)oc2ccc(OC)cc2c1=O

>  <Activity [%]>
-27.16

$$$$
>  <Molecule Smiles>
O=c1c(O)c(-c2csc3ccccc23)oc2ccc(Cl)cc12

>  <Activity [%]>
-21.98

$$$$
>  <Molecule Smiles>
COc1cccc2oc(-c3cc(C)cs3)c(O)c(=O)c12

>  <Activity [%]>
-7.63

$$$$
>  <Molecule Smiles>
COc1ccc2c(=O)c(O)c(-c3ccco3)oc2c1

>  <Activity [%]>
-1.6

$$$$
>  <Molecule Smiles>
COc1ccc2c(=O)c(O)c(-c3cc(C)cs3)oc2c1

>  <Activity [%]>
0.01

$$$$
>  <Molecule Smiles>
O=c1c(O)c(-c2csc3ccccc23)oc2cc(Cl)ccc12

>  <Activity [%]>
81.33

$$$$
>  <Molecule Smiles>
Cc1ccc2oc(-c3ccc(C)s3)c(O)c(=O)c2c1

>  <Activity [%]>
-15.83

$$$$
>  <Molecule Smiles>
O=c1c(O)c(-c2cccc(-c3ccc(O)c(O)c3)c2)oc2ccc(O)cc12

>  <Activity [%]>
-1.03

$$$$
>  <Molecule Smiles>
COc1ccc2oc(-c3c[nH]c4ccccc34)c(O)c(=O)c2c1

>  <Activity [%]>
-12.53

$$$$
>  <Molecule Smiles>
O=c1c(O)c(-c2ccco2)oc2ccc(O)cc12

>  <Activity [%]>
4.3

$$$$
>  <Molecule Smiles>
O=c1c(O)c(-c2c[nH]c3ccccc23)oc2ccc(O)cc12

>  <Activity [%]>
17.38

$$$$
